target: S. aureus DnaE (DNA polymerase III α-subunit homolog from Staphylococcus aureus) (Staphylococcus aureus); construct: SaDnaE (S. aureus DnaE residues 1-1065); 6xHis (N); made in house; host or cells: E. coli BL21-AI; assay: biochemical; assay type: biochemical; conditions: S. aureus DnaE IC50
pIC50: −log10 of the molar value.
Field: pIC50. Provide a value for each of the compounds that follow.

Look up pIC50 of C=CC[C@H]1OC(=O)[C@@H](OC)C[C@H]2C=C[C@H]3[C@H]4O[C@]2(/C(C)=C/[C@H]1C)[C@@H]3[C@H](O)[C@@H](C)[C@H]4OC(=O)c1ccc[nH]1 and report it.
> 7.93

Provide pIC50 value for the following compound: CO[C@H]1C[C@H]2C=CC3C4[C@H](O)[C@@H](C)[C@@H](OC(=O)c5ccc[nH]5)[C@@H]3O[C@]42/C(C)=C/[C@@H](C)[C@@H]([C@@H](C)OC(=O)C(=O)OCCN2CCN(C)CC2)OC1=O.O=C(O)C(F)(F)F
> 8.14

###

target: E. coli DnaE (DNA polymerase III α-subunit from Escherichia coli) (Escherichia coli); construct: EcDnaE (E. coli DnaE residues 1-1160); 6xHis (N); made in house; host or cells: E. coli BL21(DE3); assay: In vitro DnaE single enzyme assay (E. coli); assay type: biochemical; conditions: read-out: E. coli DnaE IC50 (converted)
Sequence (P10443 whole entry, the tested form may be a part): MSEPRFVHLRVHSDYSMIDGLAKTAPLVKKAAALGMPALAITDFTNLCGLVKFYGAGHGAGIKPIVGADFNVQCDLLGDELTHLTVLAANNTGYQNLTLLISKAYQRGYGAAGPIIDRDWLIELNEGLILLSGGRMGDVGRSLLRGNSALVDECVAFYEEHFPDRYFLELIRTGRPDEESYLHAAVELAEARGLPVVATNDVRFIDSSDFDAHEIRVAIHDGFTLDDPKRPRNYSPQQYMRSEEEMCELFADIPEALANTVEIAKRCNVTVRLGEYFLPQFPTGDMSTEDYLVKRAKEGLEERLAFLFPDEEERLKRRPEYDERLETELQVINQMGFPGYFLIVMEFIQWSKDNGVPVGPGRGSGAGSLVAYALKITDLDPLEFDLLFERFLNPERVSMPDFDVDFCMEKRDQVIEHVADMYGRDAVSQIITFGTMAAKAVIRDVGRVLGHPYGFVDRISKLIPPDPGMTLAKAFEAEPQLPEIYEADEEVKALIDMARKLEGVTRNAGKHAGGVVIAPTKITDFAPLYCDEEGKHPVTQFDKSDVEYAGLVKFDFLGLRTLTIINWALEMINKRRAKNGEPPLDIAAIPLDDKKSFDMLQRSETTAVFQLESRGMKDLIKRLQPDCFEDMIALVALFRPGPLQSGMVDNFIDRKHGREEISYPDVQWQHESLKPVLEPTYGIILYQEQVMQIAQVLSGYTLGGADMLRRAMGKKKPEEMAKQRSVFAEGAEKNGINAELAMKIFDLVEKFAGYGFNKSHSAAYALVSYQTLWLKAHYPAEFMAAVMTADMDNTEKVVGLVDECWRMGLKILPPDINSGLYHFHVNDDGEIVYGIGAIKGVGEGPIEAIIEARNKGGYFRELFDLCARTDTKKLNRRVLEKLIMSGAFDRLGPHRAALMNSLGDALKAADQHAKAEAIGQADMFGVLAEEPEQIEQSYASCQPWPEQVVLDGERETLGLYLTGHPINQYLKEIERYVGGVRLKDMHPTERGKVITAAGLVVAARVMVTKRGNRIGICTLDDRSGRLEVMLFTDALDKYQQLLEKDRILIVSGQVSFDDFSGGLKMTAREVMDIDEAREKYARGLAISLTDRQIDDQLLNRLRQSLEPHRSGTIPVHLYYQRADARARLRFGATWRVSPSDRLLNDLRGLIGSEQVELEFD
reported_metric: IC50 (µM)
Field format: number, assumed µM, no unit text.

Identify IC50 associated with the molecule CO[C@H]1C[C@H]2C=CC3C4[C@H](O)[C@@H](C)[C@@H](OC(=O)c5ccc[nH]5)[C@@H]3O[C@]42/C(C)=C/[C@@H](C)[C@@H]([C@@H](C)OC(=O)n2nnnc2N)OC1=O [Example 64]
46.3

Tell me its IC50 given CO[C@H]1C[C@H]2C=C[C@H]3[C@H]4O[C@]2(/C(C)=C/[C@@H](C)[C@@H]([C@@H](C)OC(=O)OC(C)C)OC1=O)[C@@H]3[C@H](O)[C@@H](C)[C@H]4OC(=O)c1ccc[nH]1 [Example 33] as the entry.
58.2

###

Give measured pIC50 for each item. Keep answers brief.
Biological target: S. aureus DnaE (DNA polymerase III α-subunit homolog from Staphylococcus aureus) (Staphylococcus aureus)
Construct: SaDnaE (S. aureus DnaE residues 1-1065); 6xHis (N); made in house; host or cells: E. coli BL21-AI
Sequence (Q5HF71 1-1065): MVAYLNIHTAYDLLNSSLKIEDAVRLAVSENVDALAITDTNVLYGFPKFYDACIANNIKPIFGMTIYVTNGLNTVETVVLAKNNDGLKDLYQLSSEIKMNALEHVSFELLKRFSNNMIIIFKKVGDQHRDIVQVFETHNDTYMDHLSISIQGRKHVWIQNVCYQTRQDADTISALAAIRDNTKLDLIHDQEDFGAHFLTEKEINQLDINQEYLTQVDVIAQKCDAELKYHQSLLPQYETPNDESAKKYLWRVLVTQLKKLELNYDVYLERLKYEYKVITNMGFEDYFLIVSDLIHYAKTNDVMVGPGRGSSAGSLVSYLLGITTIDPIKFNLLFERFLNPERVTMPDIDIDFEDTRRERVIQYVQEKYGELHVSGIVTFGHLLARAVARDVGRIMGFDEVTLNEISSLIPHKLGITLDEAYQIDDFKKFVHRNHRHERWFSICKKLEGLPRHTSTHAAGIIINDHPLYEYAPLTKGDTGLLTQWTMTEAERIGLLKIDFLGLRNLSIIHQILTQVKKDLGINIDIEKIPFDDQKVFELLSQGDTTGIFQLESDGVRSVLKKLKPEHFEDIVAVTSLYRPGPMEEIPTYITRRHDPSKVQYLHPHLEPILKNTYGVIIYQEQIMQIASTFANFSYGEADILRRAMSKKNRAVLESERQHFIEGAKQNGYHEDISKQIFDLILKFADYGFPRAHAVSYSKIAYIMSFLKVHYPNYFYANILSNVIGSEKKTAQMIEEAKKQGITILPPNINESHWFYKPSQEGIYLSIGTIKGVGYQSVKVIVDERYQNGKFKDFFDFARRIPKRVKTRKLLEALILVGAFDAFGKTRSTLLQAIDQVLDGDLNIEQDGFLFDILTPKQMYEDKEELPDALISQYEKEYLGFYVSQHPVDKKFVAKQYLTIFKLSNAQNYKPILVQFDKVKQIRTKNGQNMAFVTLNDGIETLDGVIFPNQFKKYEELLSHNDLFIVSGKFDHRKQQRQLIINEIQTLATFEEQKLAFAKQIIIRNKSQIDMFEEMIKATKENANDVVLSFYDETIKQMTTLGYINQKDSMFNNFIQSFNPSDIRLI
Test: biochemical
Format: biochemical
Conditions: S. aureus DnaE IC50
Scale: pIC50 equals -log10([C]), with [C] in mol/L.

State, in one line, measured pIC50 of COC(=O)/C=C/c1c[nH]c(C(=O)O[C@@H]2[C@H](C)[C@@H](O)[C@@H]3[C@H]4C=CC5C[C@H](OC)C(=O)O[C@H](C(C)O)[C@H](C)/C=C(\C)[C@]53O[C@H]42)c1 (stereo partly shown)
6.52

Report pIC50, nothing else, for this compound: CO[C@H]1C[C@H]2C[C@@H](O)[C@H]3[C@H]4O[C@]2(/C(C)=C/[C@@H](C)[C@@H]([C@@H](C)O)OC1=O)[C@@H]3[C@H](O)[C@@H](C)[C@H]4OC(=O)c1ccc[nH]1
5.03

Entry CO[C@H]1C[C@H]2C=C[C@H]3[C@H]4O[C@]2(/C(C)=C/[C@@H](C)[C@@H]([C@@H](C)OC(=O)NC2CC2)OC1=O)[C@@H]3[C@H](O)[C@@H](C)[C@H]4OC(=O)c1ccc[nH]1 needs its pIC50 filled in; supply it.
7.74

###

target: E. coli DnaE (DNA polymerase III α-subunit from Escherichia coli) (Escherichia coli); construct: EcDnaE (E. coli DnaE residues 1-1160); 6xHis (N); made in house; host or cells: E. coli BL21(DE3); assay: In vitro DnaE single enzyme assay (E. coli); assay type: biochemical; conditions: E. coli DnaE IC50
reported_metric: IC50 (µM)
Quick note: give the figure in µM, leave out the unit.

Dear colleague, please send me the reported IC50 for CCOC(=O)O[C@H](C)[C@H]1OC(=O)[C@@H](OC)CC2C=C[C@H]3[C@H]4O[C@]2(/C(C)=C/[C@H]1C)[C@@H]3[C@H](O)[C@@H](C)[C@H]4OC(=O)c1ccc[nH]1 (stereo partly drawn) [Example 29] when you can.
76.6

Give IC50 for the following molecule: CO[C@H]1C[C@H]2C=C[C@H]3[C@H]4O[C@]2(/C(C)=C/[C@@H](C)[C@@H]([C@@H](C)O)OC1=O)[C@@H]3[C@H](O)[C@@H](C)[C@H]4OC(=O)c1[nH]c(Br)c(Br)c1Br [Example 41]
79.8

State, in one line, measured IC50 of CO[C@H]1C[C@H]2C=CC3C4[C@H](O)[C@@H](C)[C@@H](OC(=O)c5ccc[nH]5)[C@@H]3O[C@]42/C(C)=C/[C@@H](C)[C@@H]([C@@H](C)OC(=O)C(=O)NCc2ccccc2)OC1=O [Example 114]
16.3

Return value of IC50 for input CCCNC(=O)O[C@H](C)[C@H]1OC(=O)[C@@H](OC)C[C@H]2C=C[C@H]3[C@H]4O[C@]2(/C(C)=C/[C@H]1C)[C@@H]3[C@H](O)[C@@H](C)[C@H]4OC(=O)c1ccc[nH]1 [Example 2] , no commentary.
51.6

###

Assignment: determine reported S. aureus DnaE IC50 for the given molecules.
target: S. aureus DnaE (DNA polymerase III α-subunit homolog from Staphylococcus aureus) (Staphylococcus aureus); construct: SaDnaE (S. aureus DnaE residues 1-1065); 6xHis (N); made in house; host or cells: E. coli BL21-AI; experiment: biochemical; format: biochemical
Please reply with the bare figure in ng/mL and do not write the unit itself.

Assign S. aureus DnaE IC50 to the following record: CO[C@H]1C[C@H]2C=CC3C4[C@H](O)[C@@H](C)[C@@H](OC(=O)c5ccc[nH]5)[C@@H]3O[C@]42/C(C)=C/[C@@H](C)[C@@H]([C@@H](C)OC(=O)C(=O)NC2CC2)OC1=O
0.7

Read off the recorded S. aureus DnaE IC50 for CO[C@H]1C[C@H]2C=CC3C4[C@H](O)[C@@H](C)[C@@H](OC(=O)c5ccc[nH]5)[C@@H]3O[C@]42/C(C)=C/[C@@H](C)[C@@H]([C@@H](C)OC(=O)C(=O)N2CCOCC2)OC1=O
4

Output measured S. aureus DnaE IC50 for this item: CO[C@H]1C[C@H]2C=CC3C4[C@H](O)[C@@H](C)[C@@H](OC(=O)c5ccc[nH]5)[C@@H]3O[C@]42/C(C)=C/[C@@H](C)[C@@H]([C@@H](C)OC(=O)C(=O)NC(C)(C)C)OC1=O
6

Recall and state the measured S. aureus DnaE IC50 for COCCNC(=O)C(=O)O[C@H](C)[C@H]1OC(=O)[C@@H](OC)C[C@H]2C=CC3C4[C@H](O)[C@@H](C)[C@@H](OC(=O)c5ccc[nH]5)[C@@H]3O[C@]42/C(C)=C/[C@H]1C .
1.2

Entry source: patent US9944654B2
